These entries and their values trace back to patent US20230302160A1.

protocol-description: Fluorescence emission spectroscopy test after mixing with surfactin in different ratios
Format: physicochemical
condition-notes: compound:surfactin from 1:5 to 1:1, 1:0.2
measure-name: fluorescence quenching effect when the amount of surfactin was reduced

{"molecule": "CC[N+]1=C(/C=C/C2=C(Cl)C(=C/C=C3/N(CCCCCC(=O)O)c4ccccc4C3(C)C)/CCC2)C(C)(C)c2ccccc21 [Compound 3, reference compound]", "recorded-result": "significantly reduced"}
{"molecule": "CCN1/C(=C/C=C2\\CCCC(/C=C/C3=[N+](CC)c4ccccc4C3(C)C)=C2Cl)C(C)(C)c2ccccc21 [Compound 2, reference compound]", "recorded-result": "significantly reduced"}
